Sourced from the supplement of paper PMC10567573

B1: RIT1 (parent)
chain: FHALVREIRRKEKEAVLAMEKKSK

- Variants of: B1
- test: protein stability index of a GFP-peptide fusion (GPS, HEK-293T) (PSI 1-6); higher = more stable;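 also: lentivirally expressed fusions sorted by FACS into six bins by GFP to DsRed ratio, PSI derived from sequencing read proportions per bin multiplied by bin number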
- assay_setup: c terminus: a fixed tail appended
Classification field: enter label 1 for protein stability index values not below 2, label 0 for values below it.

{"columns": ["mutation_key", "category_label"],
 "data": [
  ["K24T", "label 0"],
  ["E7M", "label 1"],
  ["S23N", "label 0"],
  ["R10Y", "label 0"],
  ["I8G", "label 1"],
  ["H2Q", "label 1"],
  ["V16N", "label 0"],
  ["K11Q", "label 1"],
  ["R10K", "label 0"],
  ["R6F", "label 1"],
  ["R10M", "label 1"],
  ["E7W", "label 0"],
  ["E20R", "label 1"],
  ["R9C", "label 0"],
  ["K13F", "label 1"],
  ["A3F", "label 1"],
  ["F1Q", "label 1"],
  ["I8D", "label 1"],
  ["K21N", "label 0"],
  ["A18H", "label 1"],
  ["K22Y", "label 0"],
  ["E14V", "label 0"],
  ["F1H", "label 1"],
  ["R6D", "label 0"],
  ["K22F", "label 0"],
  ["E20P", "label 1"],
  ["V5K", "label 0"],
  ["V16T", "label 0"],
  ["A3H", "label 0"],
  ["K21S", "label 0"],
  ["K11M", "label 1"],
  ["E20Y", "label 1"],
  ["V16P", "label 1"],
  ["K22W", "label 0"],
  ["R9K", "label 0"],
  ["F1P", "label 1"],
  ["A18G", "label 0"],
  ["E7T", "label 0"],
  ["F1L", "label 1"],
  ["E14F", "label 1"],
  ["E14S", "label 0"],
  ["E12T", "label 1"],
  ["R6N", "label 1"],
  ["V16I", "label 0"],
  ["K11S", "label 0"],
  ["M19N", "label 1"],
  ["V5Y", "label 0"],
  ["F1Y", "label 0"],
  ["K24V", "label 0"],
  ["K24Y", "label 0"],
  ["I8N", "label 1"],
  ["A18Y", "label 0"],
  ["E7S", "label 1"],
  ["K11E", "label 1"],
  ["M19K", "label 1"],
  ["L4D", "label 1"],
  ["R9H", "label 0"],
  ["H2P", "label 1"],
  ["V16A", "label 1"],
  ["M19I", "label 0"],
  ["K24N", "label 0"],
  ["L17S", "label 0"],
  ["I8W", "label 1"],
  ["L17R", "label 0"],
  ["K22N", "label 1"],
  ["A15V", "label 1"],
  ["L17Q", "label 0"],
  ["E7A", "label 1"],
  ["K22S", "label 0"],
  ["A15N", "label 0"],
  ["R10S", "label 0"],
  ["E12Y", "label 1"],
  ["F1C", "label 1"],
  ["M19R", "label 1"],
  ["S23F", "label 1"],
  ["A15K", "label 1"],
  ["A18T", "label 0"],
  ["L4I", "label 1"],
  ["V16D", "label 0"],
  ["R9D", "label 1"],
  ["K24R", "label 1"],
  ["R6G", "label 0"],
  ["V5P", "label 0"]
]}
